# Test system: SNB-19 CNS
# EXPERIMENT SUMMARY: NCI tumour cell line growth inhibition, 48 h
Recorded TGI by entry

Observe how each entry below is paired with its result.
COMPOUND: CC(=O)/C=C/c1ccc(C2CC(C)=Nc3c(ccc4c3C(=O)c3ccccc3C4=O)N2)cc1 (stereo not drawn)
TARGET SYSTEM: SNB-19 CNS
VALUE: > 100 µM

COMPOUND: C=C(C)[C@@H]1CC[C@]2(C(=O)O)CC[C@]3(C)[C@H](CC[C@@H]4[C@@]5(C)CC[C@H](C(=O)/C=C/c6ccc(O)cc6)C(C)(C)[C@@H]5CC[C@]43C)[C@@H]12
TARGET SYSTEM: SNB-19 CNS
VALUE: 27.7 µM

Form: compound = CC(C(=O)Oc1ccc2ccccc2c1-c1c(O)ccc2ccccc12)c1ccccc1 (stereo not drawn) ; TGI = 28.4 µM

Form: compound = `O=c1cc(-c2ccccc2)nc2n1CCN2Cc1ccccc1` ; TGI = > 100 µM

Form: compound = C=C1C(=O)C23CC1C[C@H](OC(C)=O)C2C1(C)C(OC(C)=O)C[C@H](O)C(C)(C)[C@H]1C(O)[C@@H]3OC(C)=O (stereo partly drawn) ; TGI = 44.3 µM

Form: compound = CCN(CC)CCS(=O)c1c2cc(OC)ccc2nc2ccc(OC)cc12 (stereo not drawn) ; TGI = 72 µM

Form: compound = CC(=O)Nc1ccc(C2[C@H]3C(=O)N(c4ccc(Cc5ccc(N6C(=O)[C@@H]7ON(c8ccccc8)C(c8ccc(NC(C)=O)cc8)[C@@H]7C6=O)cc5)cc4)C(=O)[C@H]3ON2c2ccccc2)cc1 (stereo partly drawn) ; TGI = > 100 µM

Form: compound = `S=C(N/N=C/c1ccccn1)Nc1ccccn1` ; TGI = > 100 µM

Form: compound = O=C1/C(=C\c2cccc(Oc3ccccc3)c2)SC(c2ccccc2)N1c1ccc(Cl)cc1 (stereo not drawn) ; TGI = > 100 µM

Form: compound = `O=S(=O)(c1ccc(I)cc1)N(c1ccccc1)S(=O)(=O)C(F)(F)C(F)(F)C(F)(F)C(F)(F)F` ; TGI = > 100 µM

Form: compound = `O=C(NOCC1CC1)c1ccc(F)c(F)c1Nc1ccc(I)cc1Cl` ; TGI = 97.3 µM

###

# Test system: HCC-2998 colon
# EXPERIMENT SUMMARY: NCI tumour cell line growth inhibition, 48 h
TEST READOUT: TGI (µM)
Write the answer as a number in µM, unit excluded.

Observe how each entry below is paired with its result.
COMPOUND: C[C@]12CC[C@@H]3c4ccc(O)cc4CC[C@H]3[C@@H]1CC[C@@H]2NS(=O)(=O)Cc1ccc(Cl)cc1
TARGET SYSTEM: HCC-2998 colon
READOUT UNIT: µM
TGI: 8.14

COMPOUND: CCN(CC)CCS(=O)c1c2cc(OC)ccc2nc2ccc(OC)cc12 (stereo not given)
TARGET SYSTEM: HCC-2998 colon
READOUT UNIT: µM
TGI: 40.7

COMPOUND: O=S1(=O)CCN(Cc2ccccc2)/C1=N\S(=O)(=O)c1ccc(Cl)cc1
TARGET SYSTEM: HCC-2998 colon
READOUT UNIT: µM
TGI: 34.5

COMPOUND: COC(=O)/C(=C\c1c(C)[nH]c2ccccc12)S(=O)(=O)c1ccccc1
TARGET SYSTEM: HCC-2998 colon
READOUT UNIT: µM
TGI: 17.4

COMPOUND: COc1cccc(-c2cc(=O)c3cc(N)ccc3[nH]2)c1
TARGET SYSTEM: HCC-2998 colon
READOUT UNIT: µM
TGI: 48.6

COMPOUND: COc1cc2[nH]c(-c3cccc(N(C)C)c3)cc(=O)c2cc1OC
TARGET SYSTEM: HCC-2998 colon
READOUT UNIT: µM
TGI: 7.5

COMPOUND: C=C1C(=O)C23CC1C[C@H](OC(C)=O)C2C1(C)C(OC(C)=O)C[C@H](O)C(C)(C)[C@H]1C(O)[C@@H]3OC(C)=O (stereo not given in full)
TARGET SYSTEM: HCC-2998 colon
READOUT UNIT: µM
TGI: 36.9

COMPOUND: COc1ccc(CN(CCc2c[nH]c3ccccc23)Cc2ccc(OC)cc2)cc1
TARGET SYSTEM: HCC-2998 colon
READOUT UNIT: µM
TGI: 43.1

COMPOUND: CCOC(=O)Oc1c(OC)cc(C(=O)O[C@@H]2C[C@@H]3CN4CCc5c([nH]c6cc(OC)ccc56)[C@H]4C[C@@H]3[C@H](C(=O)OC)[C@H]2OC)cc1OC
TARGET SYSTEM: HCC-2998 colon
READOUT UNIT: µM
TGI: 20

Moving on to another compound below.
Hey, HCC-2998 colon data for `S=C1N(c2ccc(Cl)cc2)C2=C(N=Nc3ccccc3)C(=Nc3ccccc3S2)N1c1ccccn1` : TGI came out at 35.7
